target: Growth factor receptor-bound protein 2 (Homo sapiens, UniProt P62993); assay: Binding affinity against Growth factor receptor bound protein 2 using ELISA assay
Sequence (P62993 whole entry): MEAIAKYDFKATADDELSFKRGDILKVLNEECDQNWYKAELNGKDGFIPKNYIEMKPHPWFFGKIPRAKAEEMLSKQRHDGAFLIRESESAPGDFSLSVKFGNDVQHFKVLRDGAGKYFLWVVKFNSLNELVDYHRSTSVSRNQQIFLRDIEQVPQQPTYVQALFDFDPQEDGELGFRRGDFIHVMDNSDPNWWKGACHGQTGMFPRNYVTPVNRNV
Where a SMILES comes first, the peptide text is derived from it.
IC50 values for the compounds below.
Could you give me the number in µM? Just the number is fine.

Recorded IC50, per entry:
CC(C)C[C@H]1NC(=O)[C@H](CC(C(=O)O)C(=O)O)NC(=O)C[S+]([O-])C[C@@H](C(N)=O)NC(=O)[C@H](Cc2ccc(O)cc2)NC(=O)[C@@H](Cc2ccc3ccccc3c2)NC(=O)CNC(=O)[C@@H](C(C)C)NC(=O)[C@H](CC(N)=O)NC(=O)C2(CCCCC2)NC(=O)[C@H](Cc2ccc(O)cc2)NC1=O (stereo in doubt; 15) ... 4.86
CC(C)C[C@H]1NC(=O)[C@H](CC(C(=O)O)C(=O)O)NC(=O)CSC[C@@H](C(N)=O)NC(=O)[C@H](Cc2ccc(O)cc2)NC(=O)[C@@H](Cc2ccc3ccccc3c2)NC(=O)CNC(=O)[C@@H](C(C)C)NC(=O)[C@H](CC(N)=O)NC(=O)C2(CCCCC2)NC(=O)[C@H](Cc2ccc(O)cc2)NC1=O ... 0.271
CC(C)C[C@H]1NC(=O)[C@H](CC(C(=O)O)C(=O)O)NC(=O)C[S+]([O-])C[C@@H](C(N)=O)NC(=O)[C@H](Cc2ccc(O)cc2)NC(=O)[C@@H](C2CCCCC2)NC(=O)CNC(=O)[C@@H](C(C)C)NC(=O)[C@H](CC(N)=O)NC(=O)C2(CCCCC2)NC(=O)[C@H](Cc2ccc(O)cc2)NC1=O (stereo in doubt; 17) ... 1.41

Now consider a different compound.
API: value(readout=IC50, system=Growth factor receptor-bound protein 2 (Homo sapiens, UniProt P62993)) for record CSCC[C@@H]1NC(=O)CNC(=O)[C@H](C(C)C)NC(=O)[C@H](CC(N)=O)NC(=O)[C@@H]2CCCN2C(=O)[C@H](Cc2ccc(O)cc2)NC(=O)[C@H](CC(C)C)NC(=O)[C@H](CCC(=O)O)NC(=O)CSC[C@@H](C(N)=O)NC(=O)[C@H](Cc2ccc(O)cc2)NC1=O (HELM PEPTIDE1{[O=C(C[*:3])[*:2]].E.L.Y.P.N.V.G.M.Y.C.[am]}$PEPTIDE1,PEPTIDE1,1:R3-11:R3$$$V2.0)
7.83

###

target: Growth factor receptor-bound protein 2 (Homo sapiens, UniProt P62993); assay: Binding affinity against Growth factor receptor bound protein 2 using ELISA assay
*1 amine or outer side, *2 acyl side, *3 side chain or, on linkers, in order; H or OH if unused. Where a SMILES comes first, the peptide text is derived from it. Bridges are numbered along the chain shown (N, C = ends). [ ]: non-standard residue; d: D form. Gla = N[C@@H](CC(C(=O)O)C(=O)O)C(=O)O; X1 = O=C([C@]1(N[*:1])CC2CCC1C2)[*:2]
Property Label: pIC50
// scale note: pIC50 = -log10(conc_M); give the bare number

Solved entries (count: 3):
CC(C)C[C@H]1NC(=O)[C@H](CC(C(=O)O)C(=O)O)NC(=O)CSC[C@@H](C(N)=O)NC(=O)[C@H](Cc2ccc(O)cc2)NC(=O)[C@@H](CC(C)(C)C)NC(=O)CNC(=O)[C@@H](C(C)C)NC(=O)[C@H](CC(N)=O)NC(=O)C2(CCCCC2)NC(=O)[C@H](Cc2ccc(O)cc2)NC1=O ... 6.61
CC(C)C[C@H]1NC(=O)[C@H](CC(C(=O)O)C(=O)O)NC(=O)C[S+]([O-])C[C@@H](C(N)=O)NC(=O)[C@H](Cc2ccc(O)cc2)NC(=O)[C@@H](CC(C)(C)C)NC(=O)CNC(=O)[C@@H](C(C)C)NC(=O)[C@H](CC(N)=O)NC(=O)C2(CCCCC2)NC(=O)[C@H](Cc2ccc(O)cc2)NC1=O (stereo in doubt; 12) ... 7.13
CSCC[C@@H]1NC(=O)CNC(=O)[C@H](C(C)C)NC(=O)[C@H](CC(N)=O)NC(=O)[C@@]2(CC3CCC2C3)NC(=O)[C@H](Cc2ccc(O)cc2)NC(=O)[C@H](CC(C)C)NC(=O)[C@H](CC(C(=O)O)C(=O)O)NC(=O)CSC[C@@H](C(N)=O)NC(=O)[C@H](Cc2ccc(O)cc2)NC1=O (some centres undefined) ({CH2CO}-[Gla]LY[X1]NVGMYC-NH2; thioether N-10) ... 6.14

Please look up its pIC50: CC(C)C[C@H]1NC(=O)[C@H](CC(C(=O)O)C(=O)O)NC(=O)CSC[C@@H](C(N)=O)NC(=O)[C@H](Cc2ccc(O)cc2)NC(=O)[C@@H](Cc2ccc(-c3ccccc3)cc2)NC(=O)CNC(=O)[C@@H](C(C)C)NC(=O)[C@H](CC(N)=O)NC(=O)C2(CCCCC2)NC(=O)[C@H](Cc2ccc(O)cc2)NC1=O
6.30

###

IC50 listing for selected compounds.
target: Growth factor receptor-bound protein 2 (Homo sapiens, UniProt P62993); assay: Binding affinity against Growth factor receptor bound protein 2 using ELISA assay
Respond with the bare value in nM.

Answered cases to consult:
CC(C)C[C@H]1NC(=O)[C@H](CC(C(=O)O)C(=O)O)NC(=O)C[S+]([O-])C[C@@H](C(N)=O)NC(=O)[C@H](Cc2ccc(O)cc2)NC(=O)[C@@H](Cc2ccc3ccccc3c2)NC(=O)CNC(=O)[C@@H](C(C)C)NC(=O)[C@H](CC(N)=O)NC(=O)C2(CCCCC2)NC(=O)[C@H](Cc2ccc(O)cc2)NC1=O (stereo in doubt; 14) ... 314
CC(C)C[C@H]1NC(=O)[C@H](CC(C(=O)O)C(=O)O)NC(=O)C[S+]([O-])C[C@@H](C(N)=O)NC(=O)[C@H](Cc2ccc(O)cc2)NC(=O)[C@@H](C2CCCCC2)NC(=O)CNC(=O)[C@@H](C(C)C)NC(=O)[C@H](CC(N)=O)NC(=O)C2(CCCCC2)NC(=O)[C@H](Cc2ccc(O)cc2)NC1=O (stereo in doubt; 16) ... 149
CSCC[C@H]1NC(=O)CNC(=O)[C@@H](C(C)C)NC(=O)[C@H](CC(N)=O)NC(=O)[C@@H](CCC(=O)O)NC(=O)[C@H](Cc2ccc(O)cc2)NC(=O)[C@@H](CC(C)C)NC(=O)[C@H](CC(C(=O)O)C(=O)O)NC(=O)CSC[C@@H](C(N)=O)NC(=O)[C@H](Cc2ccc(O)cc2)NC1=O ... 991

Reported IC50 for CSCC[C@H]1NC(=O)CNC(=O)[C@@H](C(C)C)NC(=O)[C@H](CC(N)=O)NC(=O)[C@@H](CCCC(=O)O)NC(=O)[C@H](Cc2ccc(O)cc2)NC(=O)[C@@H](CC(C)C)NC(=O)[C@H](CC(C(=O)O)C(=O)O)NC(=O)CSC[C@@H](C(N)=O)NC(=O)[C@H](Cc2ccc(O)cc2)NC1=O : what is it?
1510

Please give the measured IC50 for this compound: CC(C)C[C@H]1NC(=O)[C@H](CC(C(=O)O)C(=O)O)NC(=O)C[S+]([O-])C[C@@H](C(N)=O)NC(=O)[C@H](Cc2ccc(O)cc2)NC(=O)[C@@H](CC(C)(C)C)NC(=O)CNC(=O)[C@@H](C(C)C)NC(=O)[C@H](CC(N)=O)NC(=O)C2(CCCCC2)NC(=O)[C@H](Cc2ccc(O)cc2)NC1=O (stereo in doubt; 13)
747

Using the record for CC(C)C[C@H]1NC(=O)[C@H](CC(C(=O)O)C(=O)O)NC(=O)CSC[C@@H](C(N)=O)NC(=O)[C@H](Cc2ccc(O)cc2)NC(=O)[C@@H](Cc2c(F)c(F)c(F)c(F)c2F)NC(=O)CNC(=O)[C@@H](C(C)C)NC(=O)[C@H](CC(N)=O)NC(=O)C2(CCCCC2)NC(=O)[C@H](Cc2ccc(O)cc2)NC1=O , report its IC50.
238

Which value of IC50 has been reported for CSCC[C@H]1NC(=O)CNC(=O)[C@@H](C(C)C)NC(=O)[C@H](CC(N)=O)NC(=O)C2(CCCCC2)NC(=O)[C@H](Cc2ccc(O)cc2)NC(=O)[C@@H](CC(C)C)NC(=O)[C@H](CC(C(=O)O)C(=O)O)NC(=O)CSC[C@@H](C(N)=O)NC(=O)[C@H](Cc2ccc(O)cc2)NC1=O in the records?
525
